- TARGET_ENTITY: Xanthine dehydrogenase/oxidase (Bos taurus, UniProt P80457)
- Sequence (P80457 whole entry): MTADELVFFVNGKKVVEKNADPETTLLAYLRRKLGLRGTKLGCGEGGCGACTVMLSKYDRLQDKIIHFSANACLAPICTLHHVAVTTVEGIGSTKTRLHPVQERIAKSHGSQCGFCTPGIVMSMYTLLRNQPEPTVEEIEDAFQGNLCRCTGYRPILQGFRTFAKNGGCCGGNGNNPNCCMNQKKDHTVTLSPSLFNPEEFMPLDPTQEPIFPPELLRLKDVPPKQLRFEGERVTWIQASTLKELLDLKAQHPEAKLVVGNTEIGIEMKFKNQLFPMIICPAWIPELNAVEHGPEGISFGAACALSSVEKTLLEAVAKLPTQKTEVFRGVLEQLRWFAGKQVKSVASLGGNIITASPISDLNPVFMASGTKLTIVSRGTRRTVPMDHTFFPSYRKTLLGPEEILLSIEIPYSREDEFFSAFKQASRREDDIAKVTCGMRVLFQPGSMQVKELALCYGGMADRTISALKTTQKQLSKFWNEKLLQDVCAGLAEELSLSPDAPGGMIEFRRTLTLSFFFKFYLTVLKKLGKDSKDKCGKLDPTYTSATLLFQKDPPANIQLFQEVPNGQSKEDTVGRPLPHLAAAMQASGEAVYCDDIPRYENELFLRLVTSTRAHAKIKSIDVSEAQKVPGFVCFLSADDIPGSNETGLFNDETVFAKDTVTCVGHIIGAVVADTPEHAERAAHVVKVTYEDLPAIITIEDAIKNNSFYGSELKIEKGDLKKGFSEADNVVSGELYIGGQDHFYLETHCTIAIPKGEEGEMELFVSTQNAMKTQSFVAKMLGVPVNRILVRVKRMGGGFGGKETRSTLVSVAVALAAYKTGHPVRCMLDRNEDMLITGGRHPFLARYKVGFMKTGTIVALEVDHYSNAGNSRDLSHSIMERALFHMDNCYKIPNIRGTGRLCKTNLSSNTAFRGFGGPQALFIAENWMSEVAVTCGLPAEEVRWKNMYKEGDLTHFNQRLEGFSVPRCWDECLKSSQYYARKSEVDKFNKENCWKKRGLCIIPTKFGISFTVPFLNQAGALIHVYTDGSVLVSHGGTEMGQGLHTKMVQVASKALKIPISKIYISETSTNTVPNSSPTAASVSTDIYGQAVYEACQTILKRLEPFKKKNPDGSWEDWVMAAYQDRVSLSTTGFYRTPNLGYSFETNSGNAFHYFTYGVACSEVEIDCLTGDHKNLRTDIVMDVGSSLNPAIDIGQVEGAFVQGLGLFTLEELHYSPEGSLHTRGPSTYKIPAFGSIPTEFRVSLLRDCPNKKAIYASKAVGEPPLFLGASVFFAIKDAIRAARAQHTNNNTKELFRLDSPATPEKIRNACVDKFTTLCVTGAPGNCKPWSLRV
- TEST_DESCRIPTION: Inhibition of bovine xanthine oxidase assessed as reduction in uric acid formation at 100 uM using xanthine as substrate pretreated for 5 mins followed by substrate addition measured by UV-vis spectrophotometric method relative to control
- CONDITION_PARAMETERS: cattle
Please note: YES applies when inhibition at 100 µM is 40% or greater, and NO applies otherwise.

**Q:** Is inhibition at 100 µM at least 40%? Consider COc1ccc(Nc2ncnc3c2C(c2cc4ccccc4[nH]2)C2=C(CCCC2=O)O3)cc1 (centres undefined)
**A:** NO

**Q:** Is inhibition at 100 µM at least 40%? Consider COc1ccc(Nc2ncnc3c2C(c2ccc(O)cc2)c2c(n[nH]c2C)O3)cc1 (centres undefined)
**A:** YES

**Q:** Is inhibition at 100 µM at least 40%? Consider COc1ccc(Nc2ncnc3c2C(c2cccc(O)c2)c2c(c(=O)oc4ccccc24)O3)cc1 (centres undefined)
**A:** YES

**Q:** Is inhibition at 100 µM at least 40%? Consider COc1ccc(Nc2ncnc3c2C(c2ccc(F)cc2)c2c(n[nH]c2C)O3)cc1 (centres undefined)
**A:** NO

**Q:** Is inhibition at 100 µM at least 40%? Consider COc1ccc(Nc2ncnc3c2C(c2ccc(O)cc2)c2ccc4ccccc4c2O3)cc1 (centres undefined)
**A:** NO

**Q:** Is inhibition at 100 µM at least 40%? Consider COc1ccc(Nc2ncnc3c2C(c2cccs2)c2c(c(=O)oc4ccccc24)O3)cc1 (centres undefined)
**A:** YES

**Q:** Is inhibition at 100 µM at least 40%? Consider COc1ccc(Nc2ncnc3c2C(c2ccc(Br)cc2)c2ccc4ccccc4c2O3)cc1 (centres undefined)
**A:** NO

**Q:** Is inhibition at 100 µM at least 40%? Consider COc1ccc(Nc2ncnc3c2C(c2ccc(OC)c(OC)c2)c2c(c(=O)oc4ccccc24)O3)cc1 (centres undefined)
**A:** YES

**Q:** Is inhibition at 100 µM at least 40%? Consider COc1ccc(Nc2ncnc3c2C(c2cccc([N+](=O)[O-])c2)C2=C(CCCC2=O)O3)cc1 (centres undefined)
**A:** YES

**Q:** Is inhibition at 100 µM at least 40%? Consider COc1ccc(Nc2ncnc3c2C(c2cccc(Cl)c2)c2c(c(=O)oc4ccccc24)O3)cc1 (centres undefined)
**A:** YES

**Q:** Is inhibition at 100 µM at least 40%? Consider COc1ccc(Nc2ncnc3c2C(c2ccccc2OC)C2=C(CCCC2=O)O3)cc1 (centres undefined)
**A:** YES

**Q:** Is inhibition at 100 µM at least 40%? Consider COc1ccc(Nc2ncnc3c2C(c2ccc(F)cc2)c2c(ccc4ccccc24)O3)cc1 (centres undefined)
**A:** NO

**Q:** Is inhibition at 100 µM at least 40%? Consider COc1ccc(Nc2ncnc3c2C(c2ccc(O)c(OC)c2)c2ccc4ccccc4c2O3)cc1 (centres undefined)
**A:** NO

**Q:** Is inhibition at 100 µM at least 40%? Consider COc1ccc(Nc2ncnc3c2C(c2cccc(C)c2)c2c(c(=O)oc4ccccc24)O3)cc1 (centres undefined)
**A:** YES

**Q:** Is inhibition at 100 µM at least 40%? Consider COc1ccc(Nc2ncnc3c2C(c2cc(OC)c(OC)c(OC)c2)c2c(n[nH]c2C)O3)cc1 (centres undefined)
**A:** YES

**Q:** Is inhibition at 100 µM at least 40%? Consider COc1ccc(Nc2ncnc3c2C(c2cccc(C)c2)c2c(ccc4ccccc24)O3)cc1 (centres undefined)
**A:** NO

**Q:** Is inhibition at 100 µM at least 40%? Consider COc1ccc(Nc2ncnc3c2C(c2cccc4ccccc24)c2c(n[nH]c2C)O3)cc1 (centres undefined)
**A:** NO

**Q:** Is inhibition at 100 µM at least 40%? Consider COc1ccc(Nc2ncnc3c2C(c2ccc(O)c(O)c2)c2ccc4ccccc4c2O3)cc1 (centres undefined)
**A:** NO

**Q:** Is inhibition at 100 µM at least 40%? Consider COc1ccc(Nc2ncnc3c2C(c2ccc(F)cc2)c2c(c(=O)oc4ccccc24)O3)cc1 (centres undefined)
**A:** YES
